tested on: LOX IMVI; assay: NCI 60 human tumor cell line screen (SRB); type: cell-based; settings: LOX IMVI (Melanoma); 48 h
experimental-readout: Log10TGI50
Number, no unit, nothing else.

Can you look up the measured Log10TGI50 of CC(C)C[C@H](NC(=O)[C@H](Cc1ccccc1)NC(=O)[C@H](COC(F)F)NC(=O)CN1CCOCC1)C(=O)[C@@]1(C)CO1 [Example 25] for me?
−7.42

Next molecule: Cc1ncc(C(=O)N[C@@H](COC(F)F)C(=O)N[C@@H](COC(F)F)C(=O)N[C@@H](Cc2ccccc2)C(=O)[C@@]2(C)CO2)s1 [Example 1]
−6.56

Now the same for C[C@]1(C(=O)[C@H](Cc2ccccc2)NC(=O)[C@H](Cc2ccccc2)NC(=O)[C@H](COC(F)F)NC(=O)CN2CCOCC2)CO1 [Example 29]
−6.90

Would you mind doing C[C@]1(C(=O)[C@H](Cc2ccccc2)NC(=O)[C@H](COC(F)F)NC(=O)[C@H](COC(F)F)NC(=O)CN2CCOCC2)CO1 [Example 26] as well?
−7.42

* * *

tested on: HOP-92; test: NCI 60 human tumor cell line screen (SRB); format: cell-based; settings: HOP-92 (Non-Small Cell Lung Cancer); 48 h
Exercise: for every item that follows, state its recorded Log10LC50.
Could you keep your reply to the number by itself?

Fill blank: measured Log10LC50 of the compound C[C@]1(C(=O)[C@H](Cc2ccccc2)NC(=O)[C@H](COC(F)F)NC(=O)[C@H](COC(F)F)NC(=O)CN2CCOCC2)CO1 [Example 26] is ____.
−6.35

And the next one, C[C@]1(C(=O)[C@H](Cc2ccccc2)NC(=O)[C@H](Cc2ccccc2)NC(=O)[C@H](COC(F)F)NC(=O)CN2CCOCC2)CO1 [Example 29] ?
−6.03

What do you have for Cc1ncc(C(=O)N[C@@H](COC(F)F)C(=O)N[C@@H](COC(F)F)C(=O)N[C@@H](Cc2ccccc2)C(=O)[C@@]2(C)CO2)s1 [Example 1] ?
−4.39

Then CC(C)C[C@H](NC(=O)[C@H](Cc1ccccc1)NC(=O)[C@H](COC(F)F)NC(=O)CN1CCOCC1)C(=O)[C@@]1(C)CO1 [Example 25] ?
−6.35

* * *

Task for the reader: assign each of the following compounds its reported Log10TGI50.
tested on: MDA-MB-468; assay: NCI 60 human tumor cell line screen (SRB); format: cell-based; conditions: MDA-MB-468 (Breast Cancer); 48 h
Please respond with just the number, no unit label.

Find the recorded Log10TGI50 belonging to Cc1ncc(C(=O)N[C@@H](COC(F)F)C(=O)N[C@@H](COC(F)F)C(=O)N[C@@H](Cc2ccccc2)C(=O)[C@@]2(C)CO2)s1 [Example 1] and report it.
−6.32

Try the compound C[C@]1(C(=O)[C@H](Cc2ccccc2)NC(=O)[C@H](COC(F)F)NC(=O)[C@H](COC(F)F)NC(=O)CN2CCOCC2)CO1 [Example 26]
−6.96

Same thing, different compound: CC(C)C[C@H](NC(=O)[C@H](Cc1ccccc1)NC(=O)[C@H](COC(F)F)NC(=O)CN1CCOCC1)C(=O)[C@@]1(C)CO1 [Example 25]
−6.96

Also C[C@]1(C(=O)[C@H](Cc2ccccc2)NC(=O)[C@H](Cc2ccccc2)NC(=O)[C@H](COC(F)F)NC(=O)CN2CCOCC2)CO1 [Example 29] , if possible.
−6.10
